- Target Or System: Human MET (residues 956-1390) (Homo sapiens (Human), UniProt P08581)
- Sequence (P08581 956-1390): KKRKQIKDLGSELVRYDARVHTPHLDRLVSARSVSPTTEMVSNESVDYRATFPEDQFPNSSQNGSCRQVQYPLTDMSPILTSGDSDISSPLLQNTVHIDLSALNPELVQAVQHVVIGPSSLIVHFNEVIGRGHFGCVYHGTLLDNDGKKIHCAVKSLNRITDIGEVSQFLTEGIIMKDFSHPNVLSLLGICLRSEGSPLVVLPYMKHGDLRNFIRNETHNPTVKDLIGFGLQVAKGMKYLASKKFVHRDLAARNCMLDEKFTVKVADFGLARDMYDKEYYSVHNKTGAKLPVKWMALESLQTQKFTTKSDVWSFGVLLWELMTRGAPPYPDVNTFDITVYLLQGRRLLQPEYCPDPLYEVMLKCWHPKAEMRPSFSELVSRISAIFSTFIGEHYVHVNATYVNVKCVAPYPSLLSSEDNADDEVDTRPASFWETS
- Protocol Notes: Human Met kinase assay, HTRF KinEase (Example D-2)
- Type: biochemical
- Particulars: protocol of Example D-2; read-out: c-Met IC50
Structures can show the parent of a compound that is named as a salt.
Each entry below carries its recorded IC50.

{"columns": ["Compound", "IC50"],
 "data": [
  ["CNc1nccc2c(Oc3ccc(NC(=O)c4cnc(C)n(-c5ccc(F)cc5)c4=O)cc3)ccnc12", "100 to 300 nM"],
  ["COc1cnc2c(Oc3ccc(NC(=O)c4cc(C)nn(-c5ccc(F)cc5)c4=O)cc3F)ccnc2c1", "< 100 nM"],
  ["COc1cnc2c(Oc3ccc(NC(=O)c4nnc(C)c(-c5ccc(F)cc5)c4OC)cc3)ccnc2c1", "< 100 nM"],
  ["Cc1ccc2nccc(Oc3ccc(NC(=O)c4c(C)nc(C)c(-c5ccc(F)cc5C)c4O)cc3F)c2n1", "< 100 nM"],
  ["C=C(C)c1cnc2c(Oc3ccc(NC(=O)c4cnc(C)c(-c5ccc(F)cc5C)c4O)cc3)ccnc2c1", "< 100 nM"],
  ["Cc1ncc(C(=O)Nc2ccc(Oc3ccnc4cc(C(N)=O)cnc34)c(F)c2)c(O)c1-c1ccc(F)cc1", "< 100 nM"],
  ["COCc1nc(C)c(-c2ccc(F)cc2C)c(O)c1C(=O)Nc1ccc(Oc2ccnc3ccc(OC)nc23)cc1", "< 100 nM"],
  ["COc1cc2c(Oc3ccc(NC(=O)c4cnc(C)c(-c5ccc(F)cc5)c4O)cc3F)ccnc2cn1", "< 100 nM"],
  ["COc1cnc2c(Oc3ccc(NC(=O)c4cc(C)nn(-c5ccc(F)cc5)c4=O)cc3)ccnc2c1", "100 to 300 nM"],
  ["CCc1nc2c(Oc3ccc(NC(=O)c4cnc(C)c(-c5ccc(F)cc5)c4O)cc3F)ccnc2cc1OC", "< 100 nM"],
  ["Cc1ccc(C(=O)Nc2ccc(Oc3ccnc4cc(O)cnc34)c(F)c2)c(=O)n1-c1ccc(F)cc1", "< 100 nM"],
  ["COc1nc2c(Oc3ccc(NC(=O)c4c(C)nc(C)c(-c5ccc(F)cc5)c4O)cc3F)ccnc2cc1C(C)C", "> 300 nM"],
  ["COCCOc1cc2nccc(Oc3ccc(NC(=O)c4c(COC)nc(C)c(-c5ccc(F)cc5)c4O)cc3F)c2nc1OC", "< 100 nM"],
  ["Cc1nc2c(Oc3ccc(NC(=O)c4cn(C(C)C)c(C)c(-c5ccc(F)cc5)c4=O)cc3)ccnc2cc1-c1cnn(C(F)F)c1 [Compound 612, hydrochloride]", "< 100 nM"]
]}

----------
Documented pIC50 across a set of compounds
- Target Or System: KDR (phospho-KDR, VEGF165-stimulated HUVEC cells) (Homo sapiens (Human), UniProt P35968)
- Sequence (P35968 20-1356): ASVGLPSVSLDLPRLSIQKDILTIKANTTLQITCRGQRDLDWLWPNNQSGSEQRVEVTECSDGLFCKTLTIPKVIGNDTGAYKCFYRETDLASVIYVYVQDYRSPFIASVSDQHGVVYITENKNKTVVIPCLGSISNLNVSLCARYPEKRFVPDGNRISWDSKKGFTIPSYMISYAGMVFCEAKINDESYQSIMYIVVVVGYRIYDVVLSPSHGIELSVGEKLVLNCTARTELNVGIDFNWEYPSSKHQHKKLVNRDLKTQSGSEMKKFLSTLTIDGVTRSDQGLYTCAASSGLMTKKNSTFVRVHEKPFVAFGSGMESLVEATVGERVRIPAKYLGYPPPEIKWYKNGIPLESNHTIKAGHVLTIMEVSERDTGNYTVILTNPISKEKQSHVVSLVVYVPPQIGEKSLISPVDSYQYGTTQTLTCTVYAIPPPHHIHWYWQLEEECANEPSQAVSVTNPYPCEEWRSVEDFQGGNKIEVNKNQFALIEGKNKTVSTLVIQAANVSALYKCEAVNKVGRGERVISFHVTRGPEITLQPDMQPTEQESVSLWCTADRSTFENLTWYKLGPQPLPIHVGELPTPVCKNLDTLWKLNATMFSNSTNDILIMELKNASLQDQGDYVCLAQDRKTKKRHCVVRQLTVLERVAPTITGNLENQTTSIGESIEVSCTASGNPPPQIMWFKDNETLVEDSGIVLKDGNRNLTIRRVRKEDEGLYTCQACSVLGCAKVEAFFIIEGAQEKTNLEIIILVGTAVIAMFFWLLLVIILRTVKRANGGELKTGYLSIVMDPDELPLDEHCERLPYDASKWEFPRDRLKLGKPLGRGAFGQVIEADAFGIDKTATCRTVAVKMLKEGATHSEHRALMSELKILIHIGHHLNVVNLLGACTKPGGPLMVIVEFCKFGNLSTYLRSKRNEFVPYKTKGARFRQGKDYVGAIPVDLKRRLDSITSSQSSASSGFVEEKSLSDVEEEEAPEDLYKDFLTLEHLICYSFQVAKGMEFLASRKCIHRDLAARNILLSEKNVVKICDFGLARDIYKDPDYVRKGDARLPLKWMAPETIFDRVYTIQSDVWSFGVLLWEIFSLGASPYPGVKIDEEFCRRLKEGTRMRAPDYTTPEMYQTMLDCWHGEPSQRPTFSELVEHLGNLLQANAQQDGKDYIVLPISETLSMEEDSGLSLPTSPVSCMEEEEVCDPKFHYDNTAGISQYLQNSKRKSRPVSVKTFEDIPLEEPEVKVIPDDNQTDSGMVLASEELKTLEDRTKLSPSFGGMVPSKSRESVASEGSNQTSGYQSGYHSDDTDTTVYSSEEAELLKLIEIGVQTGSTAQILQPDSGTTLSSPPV
- Protocol Notes: KDR autophosphorylation ELISA in HUVEC cells (Example G)
- Assay type: cell-based
- Particulars: cellular activity; KDR autophosphorylation ELISA in HUVEC cells
pIC50: −log10 of the molar value.

{"columns": ["Sample Smiles", "Target Or System", "pIC50"],
 "data": [
  ["COCCOc1nc2c(Oc3ccc(NC(=O)c4cnc(C)c(-c5ccc(F)cc5)c4O)cc3F)ccnc2cc1C", "KDR (phospho-KDR, VEGF165-stimulated HUVEC cells) (Homo sapiens (Human), UniProt P35968)", "> 7.00"],
  ["COc1ccc2nccc(Oc3ccc(NC(=O)c4c(C)cc(C)n(-c5ccc(F)cc5)c4=O)cc3)c2n1", "KDR (phospho-KDR, VEGF165-stimulated HUVEC cells) (Homo sapiens (Human), UniProt P35968)", "> 7.00"],
  ["COc1cnc2c(Oc3ccc(NC(=O)c4cc(C(C)=O)c(C)n(-c5ccc(F)cc5)c4=O)cc3F)ccnc2c1", "KDR (phospho-KDR, VEGF165-stimulated HUVEC cells) (Homo sapiens (Human), UniProt P35968)", "< 6.52"],
  ["COc1cc2nccc(Oc3ccc(NC(=O)c4c[nH]c(=S)n(-c5ccc(F)cc5)c4=O)cc3F)c2cc1OC", "KDR (phospho-KDR, VEGF165-stimulated HUVEC cells) (Homo sapiens (Human), UniProt P35968)", "> 7.00"]
]}

----------
- Target Or System: KDR (phospho-KDR, VEGF165-stimulated HUVEC cells) (Homo sapiens (Human), UniProt P35968)
- Protocol Notes: KDR autophosphorylation ELISA in HUVEC cells (Example G)
- Assay type: cell-based
- Particulars: cellular activity; KDR autophosphorylation ELISA in HUVEC cells

{"columns": ["Sample Smiles", "Target Or System", "IC50"],
 "data": [
  ["CCc1nc(C)c(-c2ccc(F)cc2C)c(O)c1C(=O)Nc1ccc(Oc2ccnc3cc(OC)c(OC)nc23)cc1", "KDR (phospho-KDR, VEGF165-stimulated HUVEC cells) (Homo sapiens (Human), UniProt P35968)", "< 0.1 µM"],
  ["COc1cc2nccc(Oc3ccc(NC(=O)c4cn(CCn5ccnc5)cc(-c5ccc(F)cc5)c4=O)cc3F)c2nc1OC", "KDR (phospho-KDR, VEGF165-stimulated HUVEC cells) (Homo sapiens (Human), UniProt P35968)", "> 0.3 µM"],
  ["COc1cc2nccc(Oc3ccc(NC(=O)c4n[nH]c(C)c(-c5ccc(F)cc5C)c4=O)cc3)c2nc1OC", "KDR (phospho-KDR, VEGF165-stimulated HUVEC cells) (Homo sapiens (Human), UniProt P35968)", "< 0.1 µM"],
  ["COCc1nc(C)c(-c2ccc(F)cc2C)c(O)c1C(=O)Nc1ccc(Oc2ccnc3cc(C)c(OC)nc23)c(F)c1", "KDR (phospho-KDR, VEGF165-stimulated HUVEC cells) (Homo sapiens (Human), UniProt P35968)", "< 0.1 µM"]
]}

----------
- Target Or System: KDR (phospho-KDR, VEGF165-stimulated HUVEC cells) (Homo sapiens (Human), UniProt P35968)
- Protocol Notes: KDR autophosphorylation ELISA in HUVEC cells (Example G)
- Type: cell-based
- Particulars: cellular activity; KDR autophosphorylation ELISA in HUVEC cells
- Protocol: Human umbilical vein endothelial cells or HUVEC (Lonza #C2519A) were seeded at 2×10^4 cells/well onto 96-well plates (Corning #3904), in EGM-2 growth medium (Lonza #CC-3162) containing 1% Penicillin Streptomycin (Thermo Fisher #15140-122). […] IC50 values were calculated by nonlinear regression analysis using a 4-parameter logistic curve fit in ActivityBase XE (IDBS).
Measured IC50 accompanies every entry in the list below.
Measurement Name: IC50

{"columns": ["Sample Smiles", "Reported Result"],
 "data": [
  ["COc1cc2nccc(Oc3ccc(NC(=O)c4cn(C)c(C)c(-c5ccc(F)cc5)c4=O)cc3C)c2nc1OC", "< 100 nM"],
  ["COc1cc2nccc(Oc3ccc(NC(=O)c4c(C)n(C)c(C)c(-c5ccc(F)cc5)c4=O)cc3F)c2nc1OC", "100 to 300 nM"],
  ["CNc1nc2c(Oc3ccc(NC(=O)c4cn(C(C)C)c(C)c(-c5ccc(F)cc5)c4=O)cc3F)ccnc2cc1OC", "100 to 300 nM"],
  ["COc1cc2nccc(Oc3ccc(NC(=O)c4c(C)c(C(C)=O)cn(-c5ccc(F)cc5)c4=O)cc3F)c2nc1OC", "< 100 nM"],
  ["COc1cc2nccc(Oc3ccc(NC(=O)c4cn5c(c(-c6ccc(F)cc6)c4=O)COCC5)cc3F)c2nc1OC", "100 to 300 nM"],
  ["COc1cc2nccc(Oc3ccc(NC(=O)c4cn(C(C)C)c(C)c(-c5ccc(F)cc5)c4=O)cc3F)c2nc1OC", "< 100 nM"],
  ["CCn1cc(C(=O)Nc2ccc(Oc3ccnc4cc(OC)c(OC)nc34)c(F)c2)c(=O)c(-c2ccc(F)cc2)c1CO", "100 to 300 nM"],
  ["Cc1cc(F)ccc1-c1c(C)ncc(C(=O)Nc2ccc(Oc3ccnc4cc(C)c(F)nc34)c(F)c2)c1O", "< 100 nM"],
  ["COCCOc1cc2nccc(Oc3ccc(NC(=O)c4cc(C(C)=O)c(C)n(-c5ccc(F)cc5)c4=O)cc3)c2nc1OC", "> 300 nM"],
  ["C=C(C)c1cnc2c(Oc3ccc(NC(=O)c4nn(C)c(C)c(-c5ccc(F)cc5)c4=O)cc3F)ccnc2c1", "> 300 nM"],
  ["CNc1nccc2c(Oc3ccc(NC(=O)c4cnc(C)n(-c5ccc(F)cc5)c4=O)cc3)ccnc12", "100 to 300 nM"],
  ["COc1ccc2nccc(Oc3ccc(NC(=O)c4cnc(C)c(-c5ccc(F)cc5)c4O)cc3F)c2n1", "< 100 nM"],
  ["COc1cc2nccc(Oc3ccc(NC(=O)c4c(C)n(C)nc(-c5ccc(F)cc5)c4=O)cc3F)c2nc1OC", "< 100 nM"],
  ["COc1cc2nccc(Oc3ccc(NC(=O)c4cn(-c5cccnc5)cc(-c5ccc(F)cc5)c4=O)cc3F)c2nc1OC", "> 300 nM"]
]}
